EXPERIMENTAL SYSTEM: δ-opioid receptor (Mus musculus)
Construct: from tissue; host or cells: isolated mouse vas deferens
Sequence (P32300 whole entry): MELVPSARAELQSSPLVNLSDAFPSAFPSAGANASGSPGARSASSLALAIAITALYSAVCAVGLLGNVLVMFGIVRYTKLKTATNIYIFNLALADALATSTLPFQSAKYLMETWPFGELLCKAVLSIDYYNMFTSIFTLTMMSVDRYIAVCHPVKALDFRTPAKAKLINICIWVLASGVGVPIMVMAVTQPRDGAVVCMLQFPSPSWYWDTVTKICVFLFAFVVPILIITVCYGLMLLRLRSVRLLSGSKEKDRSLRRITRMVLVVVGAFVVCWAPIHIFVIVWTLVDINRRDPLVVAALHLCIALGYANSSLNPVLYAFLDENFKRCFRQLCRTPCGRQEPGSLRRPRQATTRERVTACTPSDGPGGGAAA
ASSAY METHOD TEXT: mouse vas deferens (MVD) bioassay
Assay type: cell-based
PARTICULARS: Table 2; versus deltorphin II; antilog of pA2
Please enter y where MVD Antagonist pA2 (nM), value in parentheses (Ke) is greater than or equal to 0.02 nM, and n where it is lower.

Examples from the recorded data:
[
  {
    "MOLECULE": "Cc1cc(O)cc(C)c1CC(C(=O)N1Cc2ccccc2CC1C(=O)NCCCCCCNC(=O)C1Cc2ccccc2CN1C(=O)C(Cc1c(C)cc(O)cc1C)N(C)C)N(C)C (stereo not drawn) [Compound 21, 1,6-Bis(N,N-Dimethyl-Dmt-Tic-NH)-hexane]",
    "EXPERIMENTAL SYSTEM": "δ-opioid receptor (Mus musculus)",
    "CLASS": "n"
  },
  {
    "MOLECULE": "Cc1cc(O)cc(C)c1CC(N)C(=O)N1Cc2ccccc2CC1C(=O)NCCCCCCNC(=O)C1Cc2ccccc2CN1C(=O)C(N)Cc1c(C)cc(O)cc1C (stereo not drawn) [Compound 19, 1,6-Bis(Dmt-Tic-amino)hexane]",
    "EXPERIMENTAL SYSTEM": "δ-opioid receptor (Mus musculus)",
    "CLASS": "y"
  },
  {
    "MOLECULE": "Cc1cc(O)cc(C)c1CC(N)C(=O)N1Cc2ccccc2CC1C(=O)NCCCCCCCCCCNC(=O)C1Cc2ccccc2CN1C(=O)C(N)Cc1c(C)cc(O)cc1C (centres unmarked) [Compound 20, 1,10-Bis(Drat-Tic-amino)decane]",
    "EXPERIMENTAL SYSTEM": "δ-opioid receptor (Mus musculus)",
    "CLASS": "n"
  },
  {
    "MOLECULE": "Cc1cc(O)cc(C)c1CC(N)C(=O)N1Cc2ccccc2CC1C(=O)NCCc1cnc(CCNC(=O)C2Cc3ccccc3CN2C(=O)C(N)Cc2c(C)cc(O)cc2C)c(=O)[nH]1 (centres unmarked) [Compound 9]",
    "EXPERIMENTAL SYSTEM": "δ-opioid receptor (Mus musculus)",
    "CLASS": "n"
  }
]

Next, consider the following molecule.
Please tell me: is the molecule Cc1cc(O)cc(C)c1CC(N)C(=O)N1Cc2ccccc2CC1C(=O)NCCCCNC(=O)C1Cc2ccccc2CN1C(=O)C(N)Cc1c(C)cc(O)cc1C (stereo not drawn) [Compound 18, 1,4-Bis(Dmt-Tic-amino)butane] at or over 0.02 nM in terms of MVD Antagonist pA2 (nM), value in parentheses (Ke)? y
